# MIC per entry
system: Candida albicans; assay: Minimum inhibitory concentration against Candida albicans (579a) in the presence of serum; type: functional
Supply the numeric figure in µg/mL, leaving out any unit text.

• CCCCC/C=C/C=C/[C@@H](O)C/C=C/C=C/C(=O)O[C@@H]1[C@@H](O)[C@H](c2c(O)cc(O)cc2CO)O[C@H](CO)[C@H]1O[C@@H]1O[C@H](COC(=O)c2ccc(-c3ccc(OC)cc3)cc2)[C@H](O)[C@H](O)[C@H]1O[C@@H]1O[C@H](CO)[C@H](O)[C@H](O)[C@H]1O = 1.56
• CCCCC/C=C/C=C/[C@@H](O)C/C=C/C=C/C(=O)O[C@@H]1[C@@H](O)[C@H](c2c(O)cc(O)cc2CO)O[C@H](CO)[C@H]1O[C@@H]1O[C@H](COC(=O)c2ccc(-c3ccc(OCc4ccccc4)cc3)cc2)[C@H](O)[C@H](O)[C@H]1O[C@@H]1O[C@H](CO)[C@H](O)[C@H](O)[C@H]1O = 0.78

Okay, now this compound:
MIC reading for CCCCC/C=C/C=C/[C@@H](O)C/C=C/C=C/C(=O)O[C@@H]1[C@@H](O)[C@H](c2c(O)cc(O)cc2CO)O[C@H](CO)[C@H]1O[C@@H]1O[C@H](COC(=O)c2ccc(-c3ccc(-c4ccccc4)cc3)cc2)[C@H](O)[C@H](O)[C@H]1O[C@@H]1O[C@H](CO)[C@H](O)[C@H](O)[C@H]1O : 0.78

----------
tested on: Candida albicans; experiment: Minimum inhibitory concentration against Candida albicans (ATCC 62376) in the absence of serum.; assay type: functional
# MIC per entry

Field: example entries. Status: answers known.
- CCCCC/C=C/C=C/[C@@H](O)C/C=C/C=C/C(=O)O[C@@H]1[C@@H](O)[C@H](c2c(O)cc(O)cc2CO)O[C@H](CO)[C@H]1O[C@@H]1O[C@H](COC(=O)c2ccc(-c3ccc(OCCC)cc3)cc2)[C@H](O)[C@H](O)[C@H]1O[C@@H]1O[C@H](CO)[C@H](O)[C@H](O)[C@H]1O: 12.5 µg/mL
- CCCCC/C=C/C=C/[C@@H](O)C/C=C/C=C/C(=O)O[C@@H]1[C@@H](O)[C@H](c2c(O)cc(O)cc2CO)O[C@H](CO)[C@H]1O[C@@H]1O[C@H](COC(=O)c2ccccc2)[C@H](O)[C@H](O)[C@H]1O[C@@H]1O[C@H](CO)[C@H](O)[C@H](O)[C@H]1O: > 100 µg/mL
- CCCCC/C=C/C=C/[C@@H](O)C/C=C/C=C/C(=O)O[C@@H]1[C@@H](O)[C@H](c2c(O)cc(O)cc2CO)O[C@H](CO)[C@H]1O[C@@H]1O[C@H](COC(C)=O)[C@H](O)[C@H](O)[C@H]1O[C@@H]1O[C@H](CO)[C@H](O)[C@H](O)[C@H]1O: > 100 µg/mL
- CCCCC/C=C/C=C/[C@@H](O)C/C=C/C=C/C(=O)O[C@@H]1[C@@H](O)[C@H](c2c(O)cc(O)cc2CO)O[C@H](CO)[C@H]1O[C@@H]1O[C@H](COC(=O)/C=C/C=C/CCCCCC)[C@H](O)[C@H](O)[C@H]1O[C@@H]1O[C@H](CO)[C@H](O)[C@H](O)[C@H]1O: > 100 µg/mL

The compound CCCCC/C=C/C=C/[C@@H](O)C/C=C/C=C/C(=O)O[C@@H]1[C@@H](O)[C@H](c2c(O)cc(O)cc2CO)O[C@H](CO)[C@H]1O[C@@H]1O[C@H](COC(=O)c2ccc(Oc3ccccc3)cc2)[C@H](O)[C@H](O)[C@H]1O[C@@H]1O[C@H](CO)[C@H](O)[C@H](O)[C@H]1O , when measured on Candida albicans, yielded MIC of > 100 µg/mL

The compound CCCCC/C=C/C=C/[C@@H](O)C/C=C/C=C/C(=O)O[C@@H]1[C@@H](O)[C@H](c2c(O)cc(O)cc2CO)O[C@H](CO)[C@H]1O[C@@H]1O[C@H](COC(=O)c2ccc(-c3ccc(CC)cc3)cc2)[C@H](O)[C@H](O)[C@H]1O[C@@H]1O[C@H](CO)[C@H](O)[C@H](O)[C@H]1O , when measured on Candida albicans, yielded MIC of 25 µg/mL

The compound CCCCC/C=C/C=C/[C@@H](O)C/C=C/C=C/C(=O)O[C@@H]1[C@@H](O)[C@H](c2c(O)cc(O)cc2CO)O[C@H](CO)[C@H]1O[C@@H]1O[C@H](COC(=O)c2cccc(-c3ccc(OC)cc3)c2)[C@H](O)[C@H](O)[C@H]1O[C@@H]1O[C@H](CO)[C@H](O)[C@H](O)[C@H]1O , when measured on Candida albicans, yielded MIC of 25 µg/mL

The compound CCCCC/C=C/C=C/[C@@H](O)C/C=C/C=C/C(=O)O[C@@H]1[C@@H](O)[C@H](c2c(O)cc(O)cc2CO)O[C@H](CO)[C@H]1O[C@@H]1O[C@H](COC(=O)c2cc3ccccc3c3ccccc23)[C@H](O)[C@H](O)[C@H]1O[C@@H]1O[C@H](CO)[C@H](O)[C@H](O)[C@H]1O , when measured on Candida albicans, yielded MIC of 100 µg/mL

The compound CCCCC/C=C/C=C/[C@@H](O)C/C=C/C=C/C(=O)O[C@@H]1[C@@H](O)[C@H](c2c(O)cc(O)cc2CO)O[C@H](CO)[C@H]1O[C@@H]1O[C@H](COC(=O)CCCCCCCCC)[C@H](O)[C@H](O)[C@H]1O[C@@H]1O[C@H](CO)[C@H](O)[C@H](O)[C@H]1O , when measured on Candida albicans, yielded MIC of > 100 µg/mL

The compound CCCCC/C=C/C=C/[C@@H](O)C/C=C/C=C/C(=O)O[C@@H]1[C@@H](O)[C@H](c2c(O)cc(O)cc2CO)O[C@H](CO)[C@H]1O[C@@H]1O[C@H](COC(=O)c2ccc3c(c2)-c2ccccc2-3)[C@H](O)[C@H](O)[C@H]1O[C@@H]1O[C@H](CO)[C@H](O)[C@H](O)[C@H]1O , when measured on Candida albicans, yielded MIC of 25 µg/mL

The compound CCCCC/C=C/C=C/[C@@H](O)C/C=C/C=C/C(=O)O[C@@H]1[C@@H](O)[C@H](c2c(O)cc(O)cc2CO)O[C@H](CO)[C@H]1O[C@@H]1O[C@H](COC(=O)c2ccc3ccccc3c2)[C@H](O)[C@H](O)[C@H]1O[C@@H]1O[C@H](CO)[C@H](O)[C@H](O)[C@H]1O , when measured on Candida albicans, yielded MIC of 25 µg/mL

The compound CCCCC/C=C/C=C/[C@@H](O)C/C=C/C=C/C(=O)O[C@@H]1[C@@H](O)[C@H](c2c(O)cc(O)cc2CO)O[C@H](CO)[C@H]1O[C@@H]1O[C@H](COC(=O)c2ccc(-c3ccc(-c4ccccc4)cc3)cc2)[C@H](O)[C@H](O)[C@H]1O[C@@H]1O[C@H](CO)[C@H](O)[C@H](O)[C@H]1O , when measured on Candida albicans, yielded MIC of 12.5 µg/mL

The compound CCCCC/C=C/C=C/[C@@H](O)C/C=C/C=C/C(=O)O[C@@H]1[C@@H](O)[C@H](c2c(O)cc(O)cc2CO)O[C@H](CO)[C@H]1O[C@@H]1O[C@H](COC(=O)c2ccc(-c3ccc(OCc4ccccc4)cc3)cc2)[C@H](O)[C@H](O)[C@H]1O[C@@H]1O[C@H](CO)[C@H](O)[C@H](O)[C@H]1O , when measured on Candida albicans, yielded MIC of 25 µg/mL

The compound CCCCC/C=C/C=C/[C@@H](O)C/C=C/C=C/C(=O)O[C@@H]1[C@@H](O)[C@H](c2c(O)cc(O)cc2CO)O[C@H](CO)[C@H]1O[C@@H]1O[C@H](COC(=O)c2ccc(-c3ccc(OCCCCCCCC)cc3)cc2)[C@H](O)[C@H](O)[C@H]1O[C@@H]1O[C@H](CO)[C@H](O)[C@H](O)[C@H]1O , when measured on Candida albicans, yielded MIC of 100 µg/mL
